# studySystem: T1, recombinant human PD-L1 (human, UniProt Q9NZQ7 19-238, limits assumed)
# T1 construct: also called PD-L1 protein
# T1 sequence (Q9NZQ7 19-238 limits assumed): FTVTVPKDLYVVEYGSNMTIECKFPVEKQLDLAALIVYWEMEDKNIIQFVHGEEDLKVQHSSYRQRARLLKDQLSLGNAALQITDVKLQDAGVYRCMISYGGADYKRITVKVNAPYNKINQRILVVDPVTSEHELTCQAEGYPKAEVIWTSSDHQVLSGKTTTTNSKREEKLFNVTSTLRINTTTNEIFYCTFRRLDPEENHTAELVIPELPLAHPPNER
# assayText: ELISA on human PD-L1, OD 650 nm
observable: EC50
Your answer should be a number followed by the unit of measure.

Record h9A9-HZD1 (antibody, V domains shown, also called humanized 9A9 HZD1) VH: EVQLVESGGGLVQPGGSLRLSCAASGIDLSGYWMSWVRQAPGKGLEWVGIVDNDGSAYYASWVNGRFTISRDNSKNTLYLQMNSLRAEDTAVYYCARQSGDWTFDLWGQGTLVTVSS VL: DIQMTQSPSTLSASVGDRVTITCQASQSIGRWLSWYQQKPGKAPKLLIYQASKLASGVPSRFSGSGSGTEFTLTISSLQPDDFATYYCQNNYDIIAYGNAFGGGTKVEIK . Reported EC50: 0.0159 mg/L

Record chimeric anti-PD-L1 antibody 15E9 (antibody, human IgG1, V domains shown) VH: QSVEESGGRLVTPGTPLTLTCTVSGFDISNYWMSWVRQAPGKGLEYIGIISTGGNTWYASWVKGRFTISKTSTTVDLKMTSLTTEDTATYFCVRVVIYGGTTSSFNLWGPGTLVTVSS VL: QVLTQTASPVSAAVGGTVTINCQSSQNVYNKIRLSWFQQKSGQPPKELIYAASSLASGVPSRFKGSGSGTEFTLTISDLECDDAATYYCQGGYSGPIYAFGGGTEVVVK . Reported EC50: 0.0138 mg/L

Record h15E9_HZD2 (antibody, V domains shown, also called humanized 15E9 HZD2) VH: EVQLVESGGGLVQPGGSLRLSCAASGFDISNYWMSWVRQAPGKGLEWVGIISTGGNTWYASWVKGRFTISRDNSKNTLYLQMNSLRAEDTAVYYCARVVIYGGTTSSFNLWGQGTLVTVSS VL: DIQMTQSPSSLSASVGDRVTITCQSSQNVYNKIRLSWYQQKPGKAPKRLIYAASSLASGVPSRFSGSGSGTEFTLTISSLQPEDFATYYCQGGYSGPIYAFGGGTKVEIK . Reported EC50: 1.62 mg/L

Record h51D5_HZD1 (antibody, V domains shown, also called humanized 51D5 HZD1) VH: EVQLVESGGGLVQPGGSLRLSCAASGFSLSSYWMSWVRRAPGKGLEWVGYINGGSGNPYYASWAKGRFTISRDNSKNTLYLQMNSLRAEDTAVYYCARGGESDDYVYGRYGLDPWGQGTLVTVSS VL: DIQMTQSPSTLSASVGDRVTITCQASQSISSWLSWYQQKPGKAPKLLIYDASKLASGVPSRFSGSGSGTEFTLTISSLQPDDFATYYCQQDYSSYNVDNTFGGGTKVEIK . Reported EC50: 0.0156 mg/L

Record chimeric anti-PD-L1 antibody 51D5 (antibody, human IgG1, V domains shown, also called chimeric 51D5; c51D5) VH: QSVEESGGRLVTPGTPLTLTCIVSGFSLSSYWMSWVRRAPGKGLEWIGYINGGSGNPYYASWAKGRFTISKTSTTVDLKITSPTTEDTATYFCARGGESDDYVYGRYGLDPWGPGTLVTVSS VL: AYDMTQTPASVSEPVGGTVTIKCQASQSISSWLSWYQQKPGQPPKLLIYDASKLASGVPSRFSGSGSGTQFTLTISDLECDDAATYYCQQDYSSYNVDNTFGGGTEVVVK . Reported EC50: 0.0117 mg/L

Record h51D5_HZD2 (antibody, V domains shown, also called humanized 51D5 HZD2) VH: EVQLVESGGGLVQPGGSLRLSCAASGFSLSSYWMSWVRQAPGKGLEWVGYINGGSGNPYYASWAKGRFTISRDNSKNTLYLQMNSLRAEDTAVYYCARGGESDDYVYGRYGLDPWGQGTLVTVSS VL: DIQMTQSPSTLSASVGDRVTITCQASQSISSWLSWYQQKPGKAPKLLIYDASKLASGVPSRFSGSGSGTEFTLTISSLQPDDFATYYCQQDYSSYNVDNTFGGGTKVEIK . Reported EC50: 0.0169 mg/L
